assay: CellTiter-Glo cytotoxicity assay, MC-IXC cells; assay type: cell-based; settings: human, MC-IXC neuroblastoma cells, CellTiter-Glo (ATP)
measured metric: CC50 (nM)

>>> print(df.to_string())
                               query_smiles  val
0  COc1cccc2c1C(=O)c1c(O)c3c(c(O)c1C2=O)C[C@@](O)(C(=O)CO)C[C@@H]3O[C@H]1C[C@H](N)[C@H](O)[C@H](C)O1   12

----------
assay: CellTiter-Glo cytotoxicity assay, U937 cells; format: cell-based; details: human, U937 monocyte cells, relatively sensitive cell line
measured metric: CC50

In [3]: df
Out[3]:
                               query_smiles         val
0  COc1cccc2c1C(=O)c1c(O)c3c(c(O)c1C2=O)C[C@@](O)(C(=O)CO)C[C@@H]3O[C@H]1C[C@H](N)[C@H](O)[C@H](C)O1  4 to 10 nM
